# Tested on: SNB-75 CNS
# Assay Name: NCI tumour cell line growth inhibition, 48 h
Value Kind: TGI

## Task Given the entry "COc1cccc2c1C(=N)c1c(O)c3c(c(O)c1C2=O)C[C@@](O)(C(C)=O)C[C@@H]3O[C@H]1C[C@H](N)[C@H](O)[C@H](C)O1" , report its measured TGI.
## Result 2.08 µM

## Task Please answer likewise for NC(CCCC(N)P(=O)(O)O)P(=O)(O)O (centres undefined)
## Result > 100 µM

## Task Queued: "COc1cc2c(cc1OCCCCCCCCCCN1C(=O)c3cccc4cccc(c34)C1=O)N=C[C@@H]1CCCN1C2=O"
## Result 21.3 µM

## Task Similarly, CCOC(=O)CCC(NC(=O)c1ccc(Nc2nc3ccc(C(F)(F)F)cc3nc2-c2ccccc2)cc1)C(=O)OCC (centres undefined) ?
## Result > 100 µM

----------
# Test system: MOLT-4 leukemia
# Assay Name: NCI tumour cell line growth inhibition, 48 h
Exercise: state measured TGI for each of the compounds provided.
Answer with a number only, understood to be in µM.

## Task Quick check: TGI of CC(C)(C)C1CCC(=O)/C(=C/CC2CC(=O)N(c3ccccc3)C(=O)C2)C1 (stereo not given) ?
## Result 75.2

## Task Ok, now "COc1ccc(Cn2c3c(cc(OC(C)=O)c2=O)Cc2ccccc2-3)cc1"
## Result 28.8

----------
# Test system: SW-620 colon
# Assay Name: NCI tumour cell line growth inhibition, 48 h
Value Kind: TGI

## Task For the compound shown here, "COC(=O)[C@@H]1C[C@H]2OC(=O)CC[C@]2(C)O[C@H]1[C@H]1O[C@@](C)(O)CCC[C@H]1C" , give the reported TGI.
## Result > 50 µM

## Task Queued: "COc1ccc2c(c1)/C(=C\c1c(Cl)[nH]c3cc(C)c(OC)cc13)C(=O)N2"
## Result > 40.1 µM

## Task Please do the same for NC1=NN(c2ccccc2)C(=O)C1C(=O)CCC(=O)Nc1cccc(Cl)c1 (stereo not given) as well.
## Result > 100 µM

## Task Next compound up: "Cc1n(CC(C)C)c2c([n+]1C)C(=O)c1ccccc1C2=O"
## Result 1.4 µM

## Task Next compound up: "Cc1cc(C)c2c(=O)cc(-c3cccc4ccccc34)[nH]c2n1"
## Result > 88.8 µM

## Task And O=C(Nc1ccc(C(F)(F)F)cc1[N+](=O)[O-])C(=O)C1NC(=S)NC1=O (stereo not given) ?
## Result > 100 µM

## Task Another compound to look at: Nc1ncnc2c1ncn2C1C=C(CO)C(O)C1O (stereo not given)
## Result > 86.8 µM

## Task Let us now turn to "COc1ccc(NC(=O)CC/C(CC(=O)c2ccco2)=N/NC(=O)C(N)=O)cc1"
## Result > 100 µM

## Task Request: COc1ccc2c(c1)CN1C(=N2)CSC1c1cccc(Br)c1 (stereo not given)
## Result > 100 µM

## Task Then this compound: "Oc1ccc2ccccc2c1N=Nc1cccc2ccccc12"
## Result > 100 µM

----------
Field: TGI. Provide a value for each of the compounds that follow.
# Tested on: U251 CNS
# Assay Name: NCI tumour cell line growth inhibition, 48 h

## Task Given Cc1c(N2C(=O)C(Cl)C2/C=C/c2ccccc2)c(=O)n(-c2ccccc2)n1C (stereo unspecified) , state its recorded TGI.
## Result 21.1 µM

## Task Next record, please: "Clc1ccc(CCN(CCc2ccc(Cl)c(Cl)c2)CCN2CCCC2)cc1Cl"
## Result 2.95 µM

## Task Note, next up: "CCOC(=O)Nc1cc2c(c(N)n1)N=C(c1ccc(OC)cc1)CN2"
## Result 2.47 µM

## Task Let us now turn to "O=C1/C(=C\c2ccc([N+](=O)[O-])cc2)N(S(=O)(=O)c2ccccc2)c2ncccc21"
## Result 34.2 µM

## Task Continue with "O=C1C=C(Nc2ccccc2C(=O)CC(=O)C(=O)Nc2cccc([N+](=O)[O-])c2)c2ccccc2C1=O"
## Result > 100 µM

## Task Likewise for "C[C@]12CCc3sc(Nc4ccc(OC(F)(F)F)cc4)nc3C1=CC[C@@H]1[C@@H]2CC[C@]2(C)C(=O)CC[C@@H]12" ?
## Result 3.26 µM

## Task Another compound to look at: "CCN1CCCc2cc3c(C(F)(F)F)cc(=O)oc3cc21"
## Result > 100 µM

## Task "CCOP(=Nc1ccc(N(C)C)cc1)(OCC)OCC" , same question.
## Result > 100 µM

## Task And the next one, COc1ccc2c(c1)CN1C(=N2)CSC1c1cccc(Br)c1 (stereo unspecified) ?
## Result > 100 µM

## Task Cool, now "COc1c(=O)cc2cc[nH]c3cc[nH]c1c23"
## Result > 100 µM

## Task What do we get for "Cc1ccc(S(=O)(=O)Nc2cccc3c(=O)[nH]cnc23)cc1" ?
## Result > 100 µM

## Task And "Cc1cc(Cl)ccc1OCC(=O)Nc1nc2c(Cl)cccc2s1" ?
## Result 25.2 µM

## Task Same again, this time with "O=S(=O)(O)c1ccc(N=Nc2ccc3c(S(=O)(=O)O)cccc3c2O)c2ccccc12"
## Result > 100 µM

## Task Would you kindly repeat that for "COc1cc2c(cc1OCCCCCCCCCCN1C(=O)c3cccc4cccc(c34)C1=O)N=C[C@@H]1CCCN1C2=O" ?
## Result 13.4 µM

## Task Also, CCC1C[N+]23CCc4c([nH]c5ccccc45)C2CC1CC3 (stereo unspecified) please.
## Result > 100 µM

## Task Param item: O=C(O)c1c2c(cc3c1CC(Cc1ccccc1)C3=O)CCC2 (stereo unspecified)
## Result > 100 µM

## Task Try "CC1(C)N=C(N)N=C(N)N1c1ccc(CCC(=O)Nc2ccc(S(=O)(=O)F)cc2)c(Cl)c1" next.
## Result > 100 µM

## Task How about this compound: O=C1C2=Cc3ccccc3OC2(O)Oc2cc3ccccc3cc21 (stereo unspecified)
## Result > 100 µM

## Task What would you report for COC(=O)[C@@H]1C=C[C@H](OC2OC(COC(C)=O)C(OC(C)=O)C(OC(C)=O)C2OC(C)=O)n2c(=O)n(-c3ccccc3)c(=O)n21 (stereo partly specified) ?
## Result 8.33 µM

## Task What do we get for "CCCCC1(NN=C2CCCCC2)C(=O)N(c2ccccc2)N(c2ccccc2)C1=O" ?
## Result > 100 µM

## Task Record: "Cc1ccc(S(=O)(=O)N=Nc2c(O)[nH]c3cc(O)c(C(=O)O)cc23)cc1"
## Result > 100 µM

----------
# Test system: UACC-62 melanoma
# Assay Name: NCI tumour cell line growth inhibition, 48 h
Given measured TGI, output y if it is greater than or equal to 20 µM and n if not.

## Task Check if TGI >= 20 µM (inclusive). Item: "S=C(N/N=C/c1ccccn1)N1CCCCC1"
## Result n

## Task Now try "CCCCCCCCCCCC(=O)OCCOCCOCCOCCOCCOC(=O)CCCCCCCCCCC" .
## Result y

## Task How about "NC(N)=NS(=O)(=O)c1ccc(NNc2c3ccccc3nc3ccccc23)cc1" ?
## Result y

## Task Same question, "CN(C)CCC(=O)N1C/C(=C\c2ccc(Cl)c(Cl)c2)C(=O)/C(=C/c2ccc(Cl)c(Cl)c2)C1" this time
## Result n

## Task Please do the same for "O=C1N/C(=C\[N+](=O)[O-])c2ccccc21" as well.
## Result y

## Task Try this compound next: COC(=O)C1Cc2cc3c(cc2C1=O)CCC3 (stereo not given)
## Result y

## Task Try this compound too: C=C1C(=O)OC2/C=C(\C(=O)O)CC/C=C(\C)CC(OC(=O)/C=C(\C)CC)C12 (stereo not given)
## Result y

## Task Also CCCCCCCC(CC(=O)NC(CO)C(=O)NC(CO)CC(C)C)OC(=O)CC(CCCCCCC)OC(=O)CC(CCCCCCC)OC1OC(C)C(O)C(OC2OC(C)C(OC(C)=O)C(O)C2O)C1O (stereo not given) ?
## Result n

## Task Same read-out for O=C(NN1C(=O)C(Cl)C1c1ccc(Cl)cc1)c1c(Cl)c(Cl)c(Cl)c(Cl)c1-c1nc2ccccc2[nH]1 (stereo not given) ?
## Result y

## Task How about OCC12C=CC(C1)c1ccccc12 (stereo not given) ?
## Result y

----------
What TGI was measured for each of the following?
# System: SN12C renal
# Assay Name: NCI tumour cell line growth inhibition, 48 h

## Task # input compound: "Cc1c(-c2ccccc2)cc(O)c2nc3ccccc3n12" ; wanted: its TGI
## Result > 100 µM

## Task Cool, now "N#C[S-].[La+3].c1cnc2c(c1)ccc1cccnc12.c1cnc2c(c1)ccc1cccnc12.c1cnc2c(c1)ccc1cccnc12"
## Result 16 µM

## Task // repeat for O=C1CS(=O)(=O)C(c2cccc(Oc3ccccc3)c2)N1c1ccc(Cl)cc1 (stereo not given) and report
## Result 57.7 µM

## Task Same read-out for "Cc1ccc(-n2[nH]nc(C(N)=O)c2=O)cc1" ?
## Result > 100 µM

## Task And the next one, CCCCCCCC(CC(=O)NC(CO)C(=O)NC(CO)CC(C)C)OC(=O)CC(CCCCCCC)OC(=O)CC(CCCCCCC)OC1OC(C)C(O)C(OC2OC(C)C(OC(C)=O)C(O)C2O)C1O (stereo not given) ?
## Result 18.6 µM

## Task Next: "CC1(C)N/C(=C\[N+](=O)[O-])C(C)(C)N1O"
## Result > 10 µM

## Task Would you kindly repeat that for "CCC(CC)NC1=C(NC(C)=O)C(=O)c2ccccc2C1=O" ?
## Result > 50 µM

## Task Quick one: "Cc1ccc(S(=O)(=O)Nc2cccc3c(=O)[nH]cnc23)cc1"
## Result > 100 µM

## Task Can you handle "O=C1N/C(=C\[N+](=O)[O-])c2ccccc21" next?
## Result > 100 µM

## Task Continue with O=C(/C=C/c1ccc(O)c(O)c1)OCC(OC(=O)/C=C/c1ccc(O)c(O)c1)C(=O)O (stereo not given)
## Result > 100 µM

## Task "CC1(C)[C@@H]2CC[C@]1(C)[C@H](OC(=O)CSC#N)C2" , same question.
## Result > 100 µM

## Task Also "N#Cc1ccc(-c2nc3c(N)ncnc3o2)cc1" ?
## Result > 100 µM

## Task Also, "CCCCC1(NN=C2CCCCC2)C(=O)N(c2ccccc2)N(c2ccccc2)C1=O" please.
## Result > 100 µM

## Task Next compound: CC(=O)SCCC(NC(=S)Nc1ccccc1)P(=O)(Oc1ccccc1)Oc1ccccc1 (stereo not given)
## Result > 100 µM

## Task Next record, please: CC(=O)C(C(c1ccccc1)N1CCOCC1)N1CCOCC1 (stereo not given)
## Result > 100 µM

## Task Next up: "C[C@]12CCc3sc(Nc4ccc(OC(F)(F)F)cc4)nc3C1=CC[C@@H]1[C@@H]2CC[C@]2(C)C(=O)CC[C@@H]12"
## Result 16.1 µM

## Task What do you get for "CNC(=O)OCc1c(COC(=O)NC)c(-c2ccc(-c3ccccc3)cc2)n(C)c1C" ?
## Result 3.8 µM

## Task Try this compound too: "COc1ccc(Cn2c3c(cc(OC(C)=O)c2=O)Cc2ccccc2-3)cc1"
## Result 20.8 µM

## Task Then what about the compound CC1(c2cccc(C3CC4(CCC3=O)OCCCCO4)c2)OCCO1 (stereo not given) ?
## Result > 100 µM

## Task How about "CCCCCCCCn1ccc2cc(NC(=O)Cn3cc(CN4CCCCCC4)nn3)ccc21" ?
## Result 3.26 µM
